System tested: T1, PDZD2_2, O15018
T1 sequence (O15018 329-429, limits assumed, looked up): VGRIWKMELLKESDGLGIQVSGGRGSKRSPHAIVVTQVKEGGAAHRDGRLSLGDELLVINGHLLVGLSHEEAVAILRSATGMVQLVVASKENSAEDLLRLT
Test summary: holdup assay
Parameters: key: below the threshold = too weak to quantify, mostly under pKd 3.1 to 4
Conditions: plain residues with an end cap or a label only (N-terminal biotin on a linker: ado-ado)
# cutoff 5 applies to pKd; >= gives Criterion met, < gives Criterion not met

input: Quick check: does LPPPESESKV [KCNJ9, Q92806] have pKd greater than or equal to 5?
output: Criterion not met

input: Quick check: does PLPPEEESWV [GAS2L2, Q8NHY3] have pKd greater than or equal to 5?
output: Criterion met

input: Quick check: does QQGLLPHSSC [TYRO3, Q06418] have pKd greater than or equal to 5?
output: Criterion not met

input: Quick check: does DLLGGGSDSI [TNRC6B, Q9UPQ9] have pKd greater than or equal to 5?
output: Criterion not met

input: Quick check: does IGHEDLETAV [DGKI, O75912] have pKd greater than or equal to 5?
output: Criterion met
